system: IL-6-GFP PC-9; assay: cell viability (CCK-8 OD) relative to DMSO control (fraction of control); higher = more viable cells; conditions: compound concentration: 10 uM; treatment time: 48 h
observable: cell viability

{"molecule": "CC(C(=O)O)c1ccc(C(=O)c2ccccc2)s1 (stereo not given) [Tiaprofenic acid]", "cell viability": 1.04}
{"molecule": "Cc1c(Cl)cccc1Nc1ncccc1C(=O)O [Clonixin]", "cell viability": 1.08}
{"molecule": "O=C(O)COc1nn(Cc2ccccc2)c2ccccc12 [Bendazac]", "cell viability": 1.14}
{"molecule": "CC1(C(=O)O)CCC2(C)CCC3(C)C(=CC(=O)C4C5(C)CCC(OC6OC(C(=O)O)C(O)C(O)C6OC6OC(C(=O)O)C(O)C(O)C6O)C(C)(C)C5CCC43C)C2C1 (stereo not given) [Glycyrrhizin (Glycyrrhizic Acid)]", "cell viability": 1.29}

Would you kindly look at the next entry?
Note to self: cell viability of CN(C)CCOC(c1ccc(Cl)cc1)c1ccccn1.O=C(O)/C=C\C(=O)O (stereo not given) [CarbinoxaMine Maleate] with IL-6-GFP PC-9 was 1.07

All figures here come from the supplement of paper PMC8866396.
